Tested on: NOMO1
Assay: cell viability relative to DMSO control; higher = less cytotoxic
Conditions: RPMI 5 mM glucose + 10% dialyzed FBS; 48 h; 46.1 µM
Binary call on cell viability with cut-off 90%: strictly below means T, and equality or higher means F.

Just wondering, is cell viability of CC(=O)Nc1ccc([C@H](C)C(=O)Nc2ncc(C(C)C)s2)cc1 below 90%?
T

Just wondering, is cell viability of Cc1ncc(OC[C@@]2(c3cccc(F)c3)C[C@H]2C(=O)Nc2ccc(F)cn2)c(C)n1 below 90%?
F

Just wondering, is cell viability of O=C(/C=C/c1c(C(=O)[O-])[nH]c2cc(Cl)cc(Cl)c12)Nc1ccccc1 below 90%?
F

Just wondering, is cell viability of CC1=CC=CC=C1CN2C(=O)C/3=C(/CCN(CC4=CC=CC=C4)C3)N\5CC\N=C25 below 90%?
T

Just wondering, is cell viability of O=C(CO)N1CCC(c2n[nH]c(-c3ccc(Cl)cc3)c2-c2ccncn2)CC1 below 90%?
F

Just wondering, is cell viability of CC1(C)CCC(=C(CN2CCN(CC2)C3=CC=C(C=C3)C(=O)N[S+]([O-])(=O)C4=CC(=C(N[C@H](CCN5CCOCC5)CSC6=CC=CC=C6)C=C4)[S+]([O-])(=O)C(F)(F)F)\C1)/C7=CC=C(Cl)C=C7 below 90%?
T

Just wondering, is cell viability of CN1\C(=C(\O)C2=C(C=CS2)[S+]1([O-])=O)C(=O)NC3=CC=CC=N3 below 90%?
T

Just wondering, is cell viability of CC(C)(C)C(=O)OCOP(=O)(COCCn1cnc2c(N)ncnc21)OCOC(=O)C(C)(C)C below 90%?
T

====

What cell viability was measured for each of the following?
Test system: NOMO1
Assay: cell viability relative to DMSO control; higher = less cytotoxic
Settings: RPMI 5 mM glucose + 10% dialyzed FBS; 48 h; 0.0211 µM
Your answer is read as %, so omit the unit and give the number.

Supply reported cell viability belonging to this compound: C[N+]1(C)[C@@H]2C[C@@H](OC(=O)[C@H](CO)c3ccccc3)C[C@H]1[C@@H]1O[C@@H]12.[Br-]
91

Supply reported cell viability belonging to this compound: CCOc1cc(N)c(Cl)cc1C(=O)NCC1CN(Cc2ccc(F)cc2)CCO1 (configuration not stated)
118

Supply reported cell viability belonging to this compound: OC[C@H]1O[C@H]([C@@H](F)[C@@H]1O)N2\C=C/C(=O)NC2=O
102

Supply reported cell viability belonging to this compound: CC(=O)N1CCN(c2ccc(OC[C@H]3CO[C@](Cn4ccnc4)(c4ccc(Cl)cc4Cl)O3)cc2)CC1
127

Supply reported cell viability belonging to this compound: COc1cc2c(Oc3ccc(NC(=O)C4(C(=O)Nc5ccc(F)cc5)CC4)cc3F)ccnc2cc1OCCCN1CCOCC1
93.8

Supply reported cell viability belonging to this compound: CC1(C)OC2CC3C4CC(F)C/5=C/C(=O)/C=C\C5(C)C4C(O)CC3(C)[C@@]2(O1)C(=O)CO (some centres not stated)
122

Supply reported cell viability belonging to this compound: CCOC(=O)N1CCN(/[N+]([O-])=N/Oc2ccc([N+](=O)[O-])cc2[N+](=O)[O-])CC1
86.8

Supply reported cell viability belonging to this compound: C=CC1=C(C(=O)O)N2C(=O)[C@@H](NC(=O)/C(=N\O)c3csc(N)n3)[C@H]2SC1
118

Supply reported cell viability belonging to this compound: CC(C)Oc1cc(Nc2nc(N[C@@H](C)c3ccc(F)cn3)ncc2Cl)n[nH]1
100

Supply reported cell viability belonging to this compound: CC1(C)CCC(=C(CN2CCN(CC2)C3=CC=C(C=C3)C(=O)N[S+]([O-])(=O)C4=CC(=C(N[C@H](CCN5CCOCC5)CSC6=CC=CC=C6)C=C4)[S+]([O-])(=O)C(F)(F)F)\C1)/C7=CC=C(Cl)C=C7
117

Supply reported cell viability belonging to this compound: COc1cc2c(Nc3ccc(Cl)c(Cl)c3F)ncnc2cc1OC[C@@H]1C[C@@H]2CN(C)C[C@@H]2C1
118

Supply reported cell viability belonging to this compound: Oc1ccc(/C=C/c2cc(O)cc(O)c2)cc1
104

Supply reported cell viability belonging to this compound: Cc1ncc(OC[C@@]2(c3cccc(F)c3)C[C@H]2C(=O)Nc2ccc(F)cn2)c(C)n1
106

Supply reported cell viability belonging to this compound: O=C(/C=C/c1c(C(=O)[O-])[nH]c2cc(Cl)cc(Cl)c12)Nc1ccccc1
126

Supply reported cell viability belonging to this compound: Oc1ccc(C2CCN(c3ccnc4ccccc34)CC2)cc1O
83.8

Supply reported cell viability belonging to this compound: CC(C)Nc1cc(C(F)(F)F)cc2nc(NC(=O)c3cccnc3)nn12
119

Supply reported cell viability belonging to this compound: O=C1Nc2ccc(Cl)cc2[C@@](C#CC2CC2)(C(F)(F)F)O1
101
